Off-Rate Ratio to that of EM0005-87c listing for selected binders.
molecular target: human PD-L1/His fusion protein (human, UniProt Q9NZQ7 19-239); experiment: BLI off-rate; test group 2
Sequence (Q9NZQ7 19-239 limits assumed): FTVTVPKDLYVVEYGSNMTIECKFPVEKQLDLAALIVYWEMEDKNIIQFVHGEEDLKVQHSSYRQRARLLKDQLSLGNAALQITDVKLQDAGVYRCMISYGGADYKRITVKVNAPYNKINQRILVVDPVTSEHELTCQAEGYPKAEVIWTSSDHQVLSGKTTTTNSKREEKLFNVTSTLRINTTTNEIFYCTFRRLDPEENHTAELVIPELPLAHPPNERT

{"binder": "HuEM0005-87-9 (antibody, human IgG1, V domains shown) VH: EVQLVQSGAEVKKPGASVKVSCKASGYSFTDYYINWVRQAPGQGLEWIGETIPNTGGTTYNQKFKAKATLTVDKSTSTAYMELSSLRSEDTAVYYCARYQSGSPFAYWGQGTTVTVSS VL: EIVMTQSPATLSVSPGERATLSCKASQNVGTAVAWYQQKPGQAPRLLIYSASNRYTGIPARFSGSGSGTEFTLTISSLQSEDFAVYYCQQHYSTPYTFGGGTKLEIK", "Off-Rate Ratio to that of EM0005-87c, %": 84}
{"binder": "HuEM0005-87-11 (antibody, human IgG1, V domains shown, also called HuEM0005-87-l l) VH: EVQLVQSGAEVKKPGASVKVSCKASGYTFTDYYINWVRQAPGQGLEWMGETIPNTGGTTYNQKFKARVTMTVDTSTSTVYMELSSLRSEDTAVYYCARYQSGSPFAYWGQGTTVTVSS VL: EIVMTQSPATLSVSPGERATLSCKASQNVGTAVAWYQQKPGQAPRLLIYSASNRYTGVPARFSGSGSGTEFTLTISSLQSEDFAVYYCQQHYSTPYTFGGGTKLEIK", "Off-Rate Ratio to that of EM0005-87c, %": 74}
{"binder": "HuEM0005-87-10 (antibody, human IgG1, V domains shown) VH: EVQLVQSGAEVKKPGASVKVSCKASGYSFTDYYINWVKQAPGQGLEWIGETIPNTGGTTYNQKFKAKATLTRDKSTSTAYMELKSLRSEDTAVYYCARYQSGSPFAYWGQGTTVTVSS VL: EIVMTQSPATLSVSPGERATLSCKASQNVGTAVAWYQQKPGQAPRLLIYSASNRYTGIPARFSGSGSGTEFTLTISSLQSEDFAVYYCQQHYSTPYTFGGGTKLEIK", "Off-Rate Ratio to that of EM0005-87c, %": 96}
